Examples of compounds with documented IC50 for HMEC-1 higher than for cancer cells (selectivity) follow.
Test system: human microvascular endothelial cell line HMEC1
Assay: MTT cytotoxicity, normal endothelial cells HMEC1
Format: cell-based
Details: HMEC-1 vs cancer cells
measurement.label: IC50 for HMEC-1 higher than for cancer cells (selectivity)

- compound.structure.string: "Cc1cc(C)n(C(N)=S)n1.Cc1ccc(C(C)C)cc1.F[P-](F)(F)(F)(F)F.[Cl-].[Ru+2]"
  recorded.result: "3–5 times"
- compound.structure.string: "Cc1ccc(C(C)C)cc1.F[P-](F)(F)(F)(F)F.NC(=S)n1nc(-c2ccccc2)cc1O.[Cl-].[Ru+2]"
  recorded.result: "3–5 times"
- compound.structure.string: "CCc1cc(CC)n(C(N)=S)n1.Cc1ccc(C(C)C)cc1.[Cl-].[Cl][Ru+]"
  recorded.result: "3–5 times"
- compound.structure.string: "Cc1cc(O)n(C(N)=S)n1.Cc1ccc(C(C)C)cc1.[Cl-].[Cl][Ru+]"
  recorded.result: "3–5 times"
- compound.structure.string: "CCc1cc(CC)n(C(N)=S)n1.Cc1ccc(C(C)C)cc1.F[P-](F)(F)(F)(F)F.[Cl-].[Ru+2]"
  recorded.result: "3–5 times"
- compound.structure.string: "Cc1ccc(C(C)C)cc1.NC(=S)n1nc(-c2ccccc2)cc1O.[Cl-].[Cl][Ru+]"
  recorded.result: "3–5 times"
- compound.structure.string: "Cc1cc(C)n(C(N)=S)n1.Cc1ccc(C(C)C)cc1.[Cl-].[Cl][Ru+]"
  recorded.result: "3–5 times"

###

Test system: MCF7
Assay: MTT cytotoxicity, MCF7
Format: cell-based, human
Settings: 48 h incubation, read-out: Cytotoxic effect, IC50

- compound: "CCc1cc(CC)n(C(N)=S)n1.Cc1ccc(C(C)C)cc1.[Cl-].[Cl][Ru+]"
  limit.operator: "="
  IC50 / µM: 82.7
- compound: "Cc1cc(O)n(C(N)=S)n1.Cc1ccc(C(C)C)cc1.[Cl-].[Cl][Ru+]"
  limit.operator: ">"
  IC50 / µM: 200
- compound: "Cl.[Cl-].[Cl-].[Cl-].[Ru+3].c1c[nH]cn1.c1c[nH]cn1 [NAMI-A, reference compound]"
  limit.operator: "="
  IC50 / µM: 14.1
- compound: "CCc1cc(CC)n(C(N)=S)n1.Cc1ccc(C(C)C)cc1.F[P-](F)(F)(F)(F)F.[Cl-].[Ru+2]"
  limit.operator: "="
  IC50 / µM: 132
- compound: "Cc1cc(O)n(C(N)=S)n1.Cc1ccc(C(C)C)cc1.F[P-](F)(F)(F)(F)F.[Cl-].[Ru+2]"
  limit.operator: ">"
  IC50 / µM: 200
- compound: "Cc1cc(C)n(C(N)=S)n1.Cc1ccc(C(C)C)cc1.F[P-](F)(F)(F)(F)F.[Cl-].[Ru+2]"
  limit.operator: ">"
  IC50 / µM: 200
- compound: "Cc1cc(C)n(C(N)=S)n1.Cc1ccc(C(C)C)cc1.[Cl-].[Cl][Ru+]"
  limit.operator: ">"
  IC50 / µM: 200
- compound: "Cc1ccc(C(C)C)cc1.NC(=S)n1nc(-c2ccccc2)cc1O.[Cl-].[Cl][Ru+]"
  limit.operator: "="
  IC50 / µM: 83.4
- compound: "Cc1ccc(C(C)C)cc1.Cc1ccc(C(C)C)cc1.[Cl][Ru][Cl].[Cl][Ru][Cl] [compound 4, dichloro(p-cymene)ruthenium(II), reference compound]"
  limit.operator: ">"
  IC50 / µM: 200
- compound: "Cc1ccc(C(C)C)cc1.F[P-](F)(F)(F)(F)F.NC(=S)n1nc(-c2ccccc2)cc1O.[Cl-].[Ru+2]"
  limit.operator: "="
  IC50 / µM: 30.4

###

Test system: Colo205
Experiment: MTT cytotoxicity, Colo205
Type: cell-based, human
Conditions: 48 h incubation, read-out: Cytotoxic effect, IC50
pIC50: −log10 of the molar value.
Measured pIC50, listed per entry for reference.
measurement.label: pIC50

- compound: "CCc1cc(CC)n(C(N)=S)n1.Cc1ccc(C(C)C)cc1.[Cl-].[Cl][Ru+]"
  test.system: "Colo205"
  limit.operator: "="
  recorded.result: 3.94
- compound: "Cc1cc(O)n(C(N)=S)n1.Cc1ccc(C(C)C)cc1.[Cl-].[Cl][Ru+]"
  test.system: "Colo205"
  limit.operator: "<"
  recorded.result: 3.70
- compound: "CCc1cc(CC)n(C(N)=S)n1.Cc1ccc(C(C)C)cc1.F[P-](F)(F)(F)(F)F.[Cl-].[Ru+2]"
  test.system: "Colo205"
  limit.operator: "="
  recorded.result: 4.04
- compound: "Cc1cc(C)n(C(N)=S)n1.Cc1ccc(C(C)C)cc1.F[P-](F)(F)(F)(F)F.[Cl-].[Ru+2]"
  test.system: "Colo205"
  limit.operator: "="
  recorded.result: 4.22
- compound: "Cc1ccc(C(C)C)cc1.F[P-](F)(F)(F)(F)F.NC(=S)n1nc(-c2ccccc2)cc1O.[Cl-].[Ru+2]"
  test.system: "Colo205"
  limit.operator: "="
  recorded.result: 4.57
- compound: "Cc1ccc(C(C)C)cc1.Cc1ccc(C(C)C)cc1.[Cl][Ru][Cl].[Cl][Ru][Cl] [compound 4, dichloro(p-cymene)ruthenium(II), reference compound]"
  test.system: "Colo205"
  limit.operator: "<"
  recorded.result: 3.70
- compound: "Cc1cc(C)n(C(N)=S)n1.Cc1ccc(C(C)C)cc1.[Cl-].[Cl][Ru+]"
  test.system: "Colo205"
  limit.operator: "="
  recorded.result: 3.96
- compound: "Cl.[Cl-].[Cl-].[Cl-].[Ru+3].c1c[nH]cn1.c1c[nH]cn1 [NAMI-A, reference compound]"
  test.system: "Colo205"
  limit.operator: "<"
  recorded.result: 3.70
- compound: "Cc1cc(O)n(C(N)=S)n1.Cc1ccc(C(C)C)cc1.F[P-](F)(F)(F)(F)F.[Cl-].[Ru+2]"
  test.system: "Colo205"
  limit.operator: "<"
  recorded.result: 3.70
- compound: "Cc1ccc(C(C)C)cc1.NC(=S)n1nc(-c2ccccc2)cc1O.[Cl-].[Cl][Ru+]"
  test.system: "Colo205"
  limit.operator: "="
  recorded.result: 4.49

###

Tested on: WM115
Test: MTT cytotoxicity, WM115
Format: cell-based, human
Details: 48 h incubation, read-out: Cytotoxic effect, IC50
pIC50: −log10 of the molar value.
Recorded pIC50 for the following molecules

- molecule: "Cc1cc(O)n(C(N)=S)n1.Cc1ccc(C(C)C)cc1.[Cl-].[Cl][Ru+]"
  limit.operator: "="
  pIC50: 5.10
- molecule: "Cc1cc(C)n(C(N)=S)n1.Cc1ccc(C(C)C)cc1.[Cl-].[Cl][Ru+]"
  limit.operator: "="
  pIC50: 4.22
- molecule: "CCc1cc(CC)n(C(N)=S)n1.Cc1ccc(C(C)C)cc1.[Cl-].[Cl][Ru+]"
  limit.operator: "="
  pIC50: 4.26
- molecule: "Cc1ccc(C(C)C)cc1.F[P-](F)(F)(F)(F)F.NC(=S)n1nc(-c2ccccc2)cc1O.[Cl-].[Ru+2]"
  limit.operator: "="
  pIC50: 4.73
- molecule: "CCc1cc(CC)n(C(N)=S)n1.Cc1ccc(C(C)C)cc1.F[P-](F)(F)(F)(F)F.[Cl-].[Ru+2]"
  limit.operator: "="
  pIC50: 4.29
- molecule: "Cl.[Cl-].[Cl-].[Cl-].[Ru+3].c1c[nH]cn1.c1c[nH]cn1 [NAMI-A, reference compound]"
  limit.operator: "<"
  pIC50: 3.70
- molecule: "Cc1ccc(C(C)C)cc1.NC(=S)n1nc(-c2ccccc2)cc1O.[Cl-].[Cl][Ru+]"
  limit.operator: "="
  pIC50: 4.57
- molecule: "Cc1cc(C)n(C(N)=S)n1.Cc1ccc(C(C)C)cc1.F[P-](F)(F)(F)(F)F.[Cl-].[Ru+2]"
  limit.operator: "="
  pIC50: 4.19
- molecule: "Cc1cc(O)n(C(N)=S)n1.Cc1ccc(C(C)C)cc1.F[P-](F)(F)(F)(F)F.[Cl-].[Ru+2]"
  limit.operator: "<"
  pIC50: 3.70
- molecule: "Cc1ccc(C(C)C)cc1.Cc1ccc(C(C)C)cc1.[Cl][Ru][Cl].[Cl][Ru][Cl] [compound 4, dichloro(p-cymene)ruthenium(II), reference compound]"
  limit.operator: "<"
  pIC50: 3.70

###

Test system: Ishikawa
Assay: MTT cytotoxicity, Ishikawa
Format: cell-based, human
Settings: 48 h incubation, read-out: Cytotoxic effect, IC50
Each entry below carries its recorded IC50.

- compound: "Cc1ccc(C(C)C)cc1.Cc1ccc(C(C)C)cc1.[Cl][Ru][Cl].[Cl][Ru][Cl] [compound 4, dichloro(p-cymene)ruthenium(II), reference compound]"
  unit.name: "µM"
  limit.operator: "="
  IC50: 120
- compound: "Cc1ccc(C(C)C)cc1.NC(=S)n1nc(-c2ccccc2)cc1O.[Cl-].[Cl][Ru+]"
  unit.name: "µM"
  limit.operator: "="
  IC50: 142
- compound: "Cc1cc(O)n(C(N)=S)n1.Cc1ccc(C(C)C)cc1.F[P-](F)(F)(F)(F)F.[Cl-].[Ru+2]"
  unit.name: "µM"
  limit.operator: ">"
  IC50: 200
- compound: "Cc1ccc(C(C)C)cc1.F[P-](F)(F)(F)(F)F.NC(=S)n1nc(-c2ccccc2)cc1O.[Cl-].[Ru+2]"
  unit.name: "µM"
  limit.operator: "="
  IC50: 124
- compound: "Cc1cc(O)n(C(N)=S)n1.Cc1ccc(C(C)C)cc1.[Cl-].[Cl][Ru+]"
  unit.name: "µM"
  limit.operator: "="
  IC50: 100
- compound: "Cc1cc(C)n(C(N)=S)n1.Cc1ccc(C(C)C)cc1.F[P-](F)(F)(F)(F)F.[Cl-].[Ru+2]"
  unit.name: "µM"
  limit.operator: ">"
  IC50: 200
- compound: "CCc1cc(CC)n(C(N)=S)n1.Cc1ccc(C(C)C)cc1.[Cl-].[Cl][Ru+]"
  unit.name: "µM"
  limit.operator: "="
  IC50: 51.4
- compound: "Cc1cc(C)n(C(N)=S)n1.Cc1ccc(C(C)C)cc1.[Cl-].[Cl][Ru+]"
  unit.name: "µM"
  limit.operator: "="
  IC50: 90.7
- compound: "Cl.[Cl-].[Cl-].[Cl-].[Ru+3].c1c[nH]cn1.c1c[nH]cn1 [NAMI-A, reference compound]"
  unit.name: "µM"
  limit.operator: ">"
  IC50: 200
- compound: "CCc1cc(CC)n(C(N)=S)n1.Cc1ccc(C(C)C)cc1.F[P-](F)(F)(F)(F)F.[Cl-].[Ru+2]"
  unit.name: "µM"
  limit.operator: "="
  IC50: 121
